# MEASURED TARGET: binding partner of C5A (XPA23)
# EXPERIMENT SUMMARY: Biacore
PROPERTY NAME: fold affinity vs original (fold)
The reply should be a number in fold, with the unit left off.

Some solved cases for reference:
| BINDER | UNITS SYMBOL | fold affinity vs original |
| --- | --- | --- |
| C5A (XPA23) VH M57N (antibody, V domains shown) VH: EVQLLESGGGLVQPGGSLRLSCAASGFTFSKYFMFWVRQAPGKGLEWVSVISPSGGNTRYADSVKGRFTISRDNSKNTLYLQMNSLRAEDTAVYYCARVGYGGNSDYWGQGTLVTVSS VL: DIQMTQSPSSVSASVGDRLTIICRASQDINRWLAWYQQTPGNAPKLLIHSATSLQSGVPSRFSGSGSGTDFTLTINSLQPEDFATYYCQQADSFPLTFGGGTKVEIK | fold | 0.03 |
| C5A (XPA23) VH V50N (antibody, V domains shown) VH: EVQLLESGGGLVQPGGSLRLSCAASGFTFSKYFMFWVRQAPGKGLEWVSNISPSGGMTRYADSVKGRFTISRDNSKNTLYLQMNSLRAEDTAVYYCARVGYGGNSDYWGQGTLVTVSS VL: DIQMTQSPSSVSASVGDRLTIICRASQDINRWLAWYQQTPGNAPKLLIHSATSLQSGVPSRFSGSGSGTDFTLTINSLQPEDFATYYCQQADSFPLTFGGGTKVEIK | fold | 0.03 |

Read off the recorded fold affinity vs original for C5A (XPA23) VH R59K (antibody, V domains shown) VH: EVQLLESGGGLVQPGGSLRLSCAASGFTFSKYFMFWVRQAPGKGLEWVSVISPSGGMTKYADSVKGRFTISRDNSKNTLYLQMNSLRAEDTAVYYCARVGYGGNSDYWGQGTLVTVSS VL: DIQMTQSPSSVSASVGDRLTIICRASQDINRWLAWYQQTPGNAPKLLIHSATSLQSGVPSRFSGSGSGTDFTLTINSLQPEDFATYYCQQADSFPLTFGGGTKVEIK
0.94
